These entries and their values trace back to patent US20230263822A1.

# PROTOCOL: Hematology assays in cynomolgus monkeys (Example 46)
# Assay type: in vivo
# SETTINGS: Day 17
Strand notation (5' to 3'): a small letter for the sugar, then the base; units joined by * are phosphorothioate-linked, units joined directly phosphodiester-linked; [ ] holds rarer units or linkages, { } end groups; capitals alone tell only the bases. e = 2'-O-(2-methoxyethyl) (MOE); [5mC] = 5-methylcytosine; d = 2'-deoxy (DNA)
MEASUREMENT LABEL: MCH

Give MCH for the following substance: ISIS 449711: 3-8-3, 4-8-4, 2-10-2, 3-10-3 or 4-10-4 MOE microwalk gapmer (Table 46) (antisense eA*e[5mC]*dA*dG*dT*dT*dT*d[5mC]*dT*dG*dG*d[5mC]*eA*eG)
22.2 pg

Give MCH for the following substance: ISIS 449709: 3-8-3, 4-8-4, 2-10-2, 3-10-3 or 4-10-4 MOE microwalk gapmer (Table 46) (antisense eG*e[5mC]*eA*e[5mC]*dA*dG*dT*dT*dT*d[5mC]*dT*dG*dG*d[5mC]*eA*eG*eG*e[5mC])
22.5 pg

Give MCH for the following substance: ISIS 445522: 5-8-5 or 6-8-6 MOE microwalk gapmer (Table 44) (antisense eG*e[5mC]*eA*e[5mC]*eA*dG*dT*dT*dT*d[5mC]*dT*dG*dG*e[5mC]*eA*eG*eG*e[5mC])
22.8 pg

Give MCH for the following substance: ISIS 445531: 5-8-5 or 6-8-6 MOE microwalk gapmer (Table 44) (antisense eG*eG*e[5mC]*eA*eT*dT*dG*dG*dT*dG*d[5mC]*dA*d[5mC]*eA*eG*eT*eT*eT)
22.1 pg

* * *

# Tested on: blood coagulation
# PROTOCOL: PT and aPTT assay in cynomolgus monkeys (Example 46)
# Assay type: in vivo
# SETTINGS: Day −5; platelet poor plasma; relative to PBS group
# Description: Groups, each consisting of two male and two female monkeys, were injected subcutaneously with 25 mg/kg of ISIS 416850, ISIS 449709, ISIS 445522, ISIS 449710, ISIS 449707, ISIS 449711, ISIS 449708, 416858, and ISIS 445531. […] Body weights were taken 14 days and 7 days before the start of treatment and were then measured weekly throughout the treatment period. […] PT and aPTT were measured using platelet poor plasma (PPP) from […] treated with ISIS oligonucleotides. […]
Strand notation (5' to 3'): a small letter for the sugar, then the base; units joined by * are phosphorothioate-linked, units joined directly phosphodiester-linked; [ ] holds rarer units or linkages, { } end groups; capitals alone tell only the bases. e = 2'-O-(2-methoxyethyl) (MOE); [5mC] = 5-methylcytosine; d = 2'-deoxy (DNA)
MEASUREMENT LABEL: PT ratio (INR)
Number only, no unit.

Give PT ratio (INR) for the following substance: ISIS 445531: 5-8-5 or 6-8-6 MOE microwalk gapmer (Table 44) (antisense eG*eG*e[5mC]*eA*eT*dT*dG*dG*dT*dG*d[5mC]*dA*d[5mC]*eA*eG*eT*eT*eT)
1.00

Give PT ratio (INR) for the following substance: ISIS 449709: 3-8-3, 4-8-4, 2-10-2, 3-10-3 or 4-10-4 MOE microwalk gapmer (Table 46) (antisense eG*e[5mC]*eA*e[5mC]*dA*dG*dT*dT*dT*d[5mC]*dT*dG*dG*d[5mC]*eA*eG*eG*e[5mC])
0.96

Give PT ratio (INR) for the following substance: ISIS 449711: 3-8-3, 4-8-4, 2-10-2, 3-10-3 or 4-10-4 MOE microwalk gapmer (Table 46) (antisense eA*e[5mC]*dA*dG*dT*dT*dT*d[5mC]*dT*dG*dG*d[5mC]*eA*eG)
0.95

Give PT ratio (INR) for the following substance: ISIS 445522: 5-8-5 or 6-8-6 MOE microwalk gapmer (Table 44) (antisense eG*e[5mC]*eA*e[5mC]*eA*dG*dT*dT*dT*d[5mC]*dT*dG*dG*e[5mC]*eA*eG*eG*e[5mC])
0.94

Give PT ratio (INR) for the following substance: ISIS 449707: 3-8-3, 4-8-4, 2-10-2, 3-10-3 or 4-10-4 MOE microwalk gapmer (Table 46) (antisense e[5mC]*eA*e[5mC]*eA*dG*dT*dT*dT*d[5mC]*dT*dG*dG*e[5mC]*eA*eG*eG)
0.94

Give PT ratio (INR) for the following substance: ISIS 449710: 3-8-3, 4-8-4, 2-10-2, 3-10-3 or 4-10-4 MOE microwalk gapmer (Table 46) (antisense e[5mC]*eA*e[5mC]*dA*dG*dT*dT*dT*d[5mC]*dT*dG*dG*d[5mC]*eA*eG*eG)
0.96

Give PT ratio (INR) for the following substance: ISIS 416850: MOE gapmer, nucleobases 1275 to 1318 of SEQ ID NO: 1 (Table 8) (antisense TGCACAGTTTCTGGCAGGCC; MOE gapmer, wing and gap sizes not given here)
1.00

Give PT ratio (INR) for the following substance: ISIS 449708: 3-8-3, 4-8-4, 2-10-2, 3-10-3 or 4-10-4 MOE microwalk gapmer (Table 46) (antisense eA*e[5mC]*eA*dG*dT*dT*dT*d[5mC]*dT*dG*dG*e[5mC]*eA*eG)
0.95

Give PT ratio (INR) for the following substance: ISIS 416858: MOE gapmer, nucleobases 1275 to 1318 of SEQ ID NO: 1 (Table 8) (antisense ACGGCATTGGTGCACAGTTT; MOE gapmer, wing and gap sizes not given here)
0.96

* * *

# Tested on: IL-1β, IL-6, IFN-γ, TNF-α, IL-8, MIP-1α, MCP-1, MIP-1β, RANTES
# PROTOCOL: Cytokine and chemokine assays in cynomolgus monkeys (Example 46)
# Assay type: in vivo
# SETTINGS: day-14 (before start of treatment)
# Procedure: Groups, each consisting of two male and two female monkeys, were injected subcutaneously with 25 mg/kg of ISIS 416850, ISIS 449709, ISIS 445522, ISIS 449710, ISIS 449707, ISIS 449711, ISIS 449708, 416858, and ISIS 445531. […] Body weights were taken 14 days and 7 days before the start of treatment and were then measured weekly throughout the treatment period. […]
Strand notation (5' to 3'): a small letter for the sugar, then the base; units joined by * are phosphorothioate-linked, units joined directly phosphodiester-linked; [ ] holds rarer units or linkages, { } end groups; capitals alone tell only the bases. e = 2'-O-(2-methoxyethyl) (MOE); [5mC] = 5-methylcytosine; d = 2'-deoxy (DNA)
Answer each item with its documented MCP-1 level.
Respond numerically; units are pg/mL and should not be typed.

Output reported MCP-1 level of the substance ISIS 449710: 3-8-3, 4-8-4, 2-10-2, 3-10-3 or 4-10-4 MOE microwalk gapmer (Table 46) (antisense e[5mC]*eA*e[5mC]*dA*dG*dT*dT*dT*d[5mC]*dT*dG*dG*d[5mC]*eA*eG*eG) on IL-1β, IL-6, IFN-γ, TNF-α, IL-8, MIP-1α, MCP-1, MIP-1β, RANTES.
409

Output reported MCP-1 level of the substance ISIS 449711: 3-8-3, 4-8-4, 2-10-2, 3-10-3 or 4-10-4 MOE microwalk gapmer (Table 46) (antisense eA*e[5mC]*dA*dG*dT*dT*dT*d[5mC]*dT*dG*dG*d[5mC]*eA*eG) on IL-1β, IL-6, IFN-γ, TNF-α, IL-8, MIP-1α, MCP-1, MIP-1β, RANTES.
264

Output reported MCP-1 level of the substance ISIS 449708: 3-8-3, 4-8-4, 2-10-2, 3-10-3 or 4-10-4 MOE microwalk gapmer (Table 46) (antisense eA*e[5mC]*eA*dG*dT*dT*dT*d[5mC]*dT*dG*dG*e[5mC]*eA*eG) on IL-1β, IL-6, IFN-γ, TNF-α, IL-8, MIP-1α, MCP-1, MIP-1β, RANTES.
361

Output reported MCP-1 level of the substance ISIS 449709: 3-8-3, 4-8-4, 2-10-2, 3-10-3 or 4-10-4 MOE microwalk gapmer (Table 46) (antisense eG*e[5mC]*eA*e[5mC]*dA*dG*dT*dT*dT*d[5mC]*dT*dG*dG*d[5mC]*eA*eG*eG*e[5mC]) on IL-1β, IL-6, IFN-γ, TNF-α, IL-8, MIP-1α, MCP-1, MIP-1β, RANTES.
290

Output reported MCP-1 level of the substance ISIS 445531: 5-8-5 or 6-8-6 MOE microwalk gapmer (Table 44) (antisense eG*eG*e[5mC]*eA*eT*dT*dG*dG*dT*dG*d[5mC]*dA*d[5mC]*eA*eG*eT*eT*eT) on IL-1β, IL-6, IFN-γ, TNF-α, IL-8, MIP-1α, MCP-1, MIP-1β, RANTES.
317

Output reported MCP-1 level of the substance ISIS 445522: 5-8-5 or 6-8-6 MOE microwalk gapmer (Table 44) (antisense eG*e[5mC]*eA*e[5mC]*eA*dG*dT*dT*dT*d[5mC]*dT*dG*dG*e[5mC]*eA*eG*eG*e[5mC]) on IL-1β, IL-6, IFN-γ, TNF-α, IL-8, MIP-1α, MCP-1, MIP-1β, RANTES.
297

Output reported MCP-1 level of the substance ISIS 416850: MOE gapmer, nucleobases 1275 to 1318 of SEQ ID NO: 1 (Table 8) (antisense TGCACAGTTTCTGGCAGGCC; MOE gapmer, wing and gap sizes not given here) on IL-1β, IL-6, IFN-γ, TNF-α, IL-8, MIP-1α, MCP-1, MIP-1β, RANTES.
434
